# Tested on: leukemia P388
# Assay Details: Test for leukemia P388, IP/IP, D1
# Assay type: in vivo, CDF1 hybrid mice
# Condition: 10 mg/kg IP
Measurement Name: Median day of survival (days)
Give the value in days but do not write days after it.

Solved entries:
>  <Compound>
CCN(CC)CCCNc1ncc(C)c2[nH]c3ccc(O)cc3c12

>  <Target Desc>
leukemia P388

>  <Unit>
days

>  <Median day of survival>
15.1

$$$$
>  <Compound>
Cc1cnc(NCCCN(C)C)c2c3cc(O)ccc3n(C)c12

>  <Target Desc>
leukemia P388

>  <Unit>
days

>  <Median day of survival>
19.0

$$$$
>  <Compound>
CCN(CC)CCCNc1ncc(C)c2c1c1cc(O)ccc1n2C

>  <Target Desc>
leukemia P388

>  <Unit>
days

>  <Median day of survival>
17.75

$$$$

Okay, now this compound:
QUERY: Given Cc1cnc(NCCCN(C)C)c2c1[nH]c1ccc(O)cc12 , respond with its Median day of survival.
RESULT: 15.25
